Reference source: ChEMBL document CHEMBL4325897

Test system: MKN-45
Assay: Cytotoxicity against human MKN45 cells assessed as cell viability at 1.5 uM after 72 hrs by MTT assay relative to control
Type: functional
Settings: MKN-45, 72 h, read-out: Activity
The molecules listed here are annotated with their viability at 1.5 µM.
Give your result in % as a bare value.

Consider the reported viability at 1.5 µM for these molecules:
CC(=O)O[C@H]1C[C@@]2(C)[C@@H](C[C@@H](O)[C@H]3[C@@]4(C)CC[C@@H](OC(=O)CCC(=O)n5cccn5)[C@@H](C)[C@@H]4CC[C@@]32C)/C1=C(\CCC=C(C)C)C(=O)OCc1ccccc1
88
CC(=O)O[C@H]1C[C@@]2(C)[C@@H](C[C@@H](O)[C@H]3[C@@]4(C)CC[C@@H](OC(=O)c5ccccc5C(=O)n5cccn5)[C@@H](C)[C@@H]4CC[C@@]32C)/C1=C(\CCC=C(C)C)C(=O)OCc1ccccc1
101
CC(=O)O[C@H]1C[C@@]2(C)[C@@H](C[C@@H](O)[C@H]3[C@@]4(C)CC[C@@H](OC(=O)CCC(=O)N5CCN(C)CC5)[C@@H](C)[C@@H]4CC[C@@]32C)/C1=C(\CCC=C(C)C)C(=O)OCc1ccccc1
81

Now for another entry.
Entry CC(=O)O[C@H]1C[C@@]2(C)[C@@H](C[C@@H](O)[C@H]3[C@@]4(C)CC[C@@H](OC(=O)CCC(=O)N5CCOCC5)[C@@H](C)[C@@H]4CC[C@@]32C)/C1=C(\CCC=C(C)C)C(=O)OCc1ccccc1 , MKN-45 data, viability at 1.5 µM value: 82
